Provenance of the data: the supplement of paper PMC11451515

test system: SEM cells; assay: AUC of viability dose-response curve (% viability x log10 dose units); higher = less sensitive; details: RPMI 5 mM glucose + 10% dialyzed FBS; 48 h
Recorded AUC of viability dose-response curve by entry
The reply should be a number, written without any unit.

Ask: State its AUC of viability dose-response curve for this compound: `CNC(=O)C1=CC=C(C)C(=C1)N2C(=C/C(=C(/Br)C2=O)OCC3=C(F)C=C(F)C=C3)\C`
Result: 455

Ask: State its AUC of viability dose-response curve for this compound: `CNC(=O)CN1CCC(Oc2cc3c(Nc4cccc(Cl)c4F)ncnc3cc2OC)CC1`
Result: 469

Ask: State its AUC of viability dose-response curve for this compound: `C#CCN[C@@H]1CCc2ccccc21.CS(=O)(=O)O`
Result: 438

Ask: State its AUC of viability dose-response curve for this compound: `CC/1=C(\O)C(=O)\C=C2/C1=C/C=C3\[C@@]2(C)CC[C@@]4(C)[C@@H]5C[C@@](C)(CC[C@]5(C)CC[C@]34C)C(O)=O`
Result: 341

Ask: State its AUC of viability dose-response curve for this compound: `OC1=CC2=C(C(=C1)O)C(=O)\C(=C(/O2)C3=CC(=C(O)C=C3)O)O`
Result: 454

Ask: State its AUC of viability dose-response curve for this compound: `COc1ccccc1N1CCN(CCN(C(=O)C2CCCCC2)c2ccccn2)CC1`
Result: 472
